// total impurity content lookup, one value per entry
assay: Comparative stability test (total impurity content, 25° C., 60% relative humidity); format: physicochemical; conditions: 6 months, packed
Numeric only. Scale: %

Example entries begin here.
# molecule, total impurity content / %
data = [
    ("CCOc1nc2cccc(C(=O)OC(C)OC(=O)OCc3nc(C)c(C)nc3C)c2n1Cc1ccc(-c2ccccc2-c2noc(=O)[n-]2)cc1.[K+] (stereo not shown) [crystalline form III]", 3.76),
    ("CCOc1nc2cccc(C(=O)OC(C)OC(=O)OCc3nc(C)c(C)nc3C)c2n1Cc1ccc(-c2ccccc2-c2noc(=O)[n-]2)cc1.[K+] (stereo not shown) [crystalline form II]", 1.87),
    ("CCOc1nc2cccc(C(=O)OC(C)OC(=O)OCc3nc(C)c(C)nc3C)c2n1Cc1ccc(-c2ccccc2-c2noc(=O)[n-]2)cc1.[K+] (stereo not shown) [mixture of crystalline form I and II]", 3.29),
]

Turning to the following molecule.
Query string: Would you kindly share the measured total impurity content for CCOc1nc2cccc(C(=O)OC(C)OC(=O)OCc3nc(C)c(C)nc3C)c2n1Cc1ccc(-c2ccccc2-c2noc(=O)[n-]2)cc1.[K+] (stereo not shown) [crystalline form I] ?
Result string: 3.10

====

// reported total impurity content for each item listed
experiment: Comparative stability test (total impurity content, 25° C., 60% relative humidity); type: physicochemical; settings: 1 month, packed

Recorded results for 2 compounds are shown here.
# compound, total impurity content
records = [
    ("CCOc1nc2cccc(C(=O)OC(C)OC(=O)OCc3nc(C)c(C)nc3C)c2n1Cc1ccc(-c2ccccc2-c2noc(=O)[n-]2)cc1.[K+] (stereo not shown) [crystalline form II]", "1.43%"),
    ("CCOc1nc2cccc(C(=O)OC(C)OC(=O)OCc3nc(C)c(C)nc3C)c2n1Cc1ccc(-c2ccccc2-c2noc(=O)[n-]2)cc1.[K+] (stereo not shown) [crystalline form III]", "2.55%"),
]

Query string: Reported total impurity content, compound CCOc1nc2cccc(C(=O)OC(C)OC(=O)OCc3nc(C)c(C)nc3C)c2n1Cc1ccc(-c2ccccc2-c2noc(=O)[n-]2)cc1.[K+] (stereo not shown) [crystalline form I] : ____
Result string: 1.62%

Query string: Please report the recorded total impurity content for CCOc1nc2cccc(C(=O)OC(C)OC(=O)OCc3nc(C)c(C)nc3C)c2n1Cc1ccc(-c2ccccc2-c2noc(=O)[n-]2)cc1.[K+] (stereo not shown) [mixture of crystalline form I and II] .
Result string: 1.58%

====

experiment: Comparative stability test (total impurity content, 25° C., 60% relative humidity); format: physicochemical; settings: 3 months, packed
outcome measure: total impurity content (%)
Give a bare numeral; the unit % is implied.

# compound, total impurity content [%]
rows = [
    ("CCOc1nc2cccc(C(=O)OC(C)OC(=O)OCc3nc(C)c(C)nc3C)c2n1Cc1ccc(-c2ccccc2-c2noc(=O)[n-]2)cc1.[K+] (stereo not shown) [mixture of crystalline form I and II]", 2.40),
    ("CCOc1nc2cccc(C(=O)OC(C)OC(=O)OCc3nc(C)c(C)nc3C)c2n1Cc1ccc(-c2ccccc2-c2noc(=O)[n-]2)cc1.[K+] (stereo not shown) [crystalline form II]", 1.82),
    ("CCOc1nc2cccc(C(=O)OC(C)OC(=O)OCc3nc(C)c(C)nc3C)c2n1Cc1ccc(-c2ccccc2-c2noc(=O)[n-]2)cc1.[K+] (stereo not shown) [crystalline form III]", 3.34),
]

Query string: Which total impurity content value is on record for CCOc1nc2cccc(C(=O)OC(C)OC(=O)OCc3nc(C)c(C)nc3C)c2n1Cc1ccc(-c2ccccc2-c2noc(=O)[n-]2)cc1.[K+] (stereo not shown) [crystalline form I] ?
Result string: 2.49

Data provenance is patent US10611757B2.
